# assay system: PA-IL (Pseudomonas aeruginosa, UniProt Q05097)
# Sequence (Q05097 whole entry): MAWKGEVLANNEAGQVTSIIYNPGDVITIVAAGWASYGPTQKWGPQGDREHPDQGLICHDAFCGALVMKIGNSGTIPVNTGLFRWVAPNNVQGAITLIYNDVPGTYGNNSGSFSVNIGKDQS
# assay explanation: cell-based
# Type: cell-based
Ends that are not written are not given here.
readout label: pIC50
To interpret pIC50, take it as minus log10 of a concentration measured in moles per litre.

Task: For the sequence FLHTRLFV [pHNK-1] , what pIC50 is on record?
Output: 3.32

----------
# assay system: PA-IIL (Pseudomonas aeruginosa)
# Sequence (Q9HYN5 entry or part of it): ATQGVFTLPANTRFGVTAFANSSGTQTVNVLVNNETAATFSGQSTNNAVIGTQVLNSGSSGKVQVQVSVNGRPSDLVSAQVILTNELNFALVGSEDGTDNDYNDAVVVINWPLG
# assay explanation: cell-based
# Format: cell-based
Ends that are not written are not given here.
readout label: pIC50
Scale: pIC50 equals -log10([C]), with [C] in mol/L.

Task: For the sequence FLHTRLFV [pHNK-1] , what pIC50 is on record?
Output: 3.01
